- study-target: T1, monkey CD22 protein (ACROBiosystems, catalog number SI2-R52Ha) (monkey, UniProt F6W485 20-688)
- T1 construct: commercial protein; also called monkey CD22-ECD; monkey CD22-ECD-His
- T1 sequence: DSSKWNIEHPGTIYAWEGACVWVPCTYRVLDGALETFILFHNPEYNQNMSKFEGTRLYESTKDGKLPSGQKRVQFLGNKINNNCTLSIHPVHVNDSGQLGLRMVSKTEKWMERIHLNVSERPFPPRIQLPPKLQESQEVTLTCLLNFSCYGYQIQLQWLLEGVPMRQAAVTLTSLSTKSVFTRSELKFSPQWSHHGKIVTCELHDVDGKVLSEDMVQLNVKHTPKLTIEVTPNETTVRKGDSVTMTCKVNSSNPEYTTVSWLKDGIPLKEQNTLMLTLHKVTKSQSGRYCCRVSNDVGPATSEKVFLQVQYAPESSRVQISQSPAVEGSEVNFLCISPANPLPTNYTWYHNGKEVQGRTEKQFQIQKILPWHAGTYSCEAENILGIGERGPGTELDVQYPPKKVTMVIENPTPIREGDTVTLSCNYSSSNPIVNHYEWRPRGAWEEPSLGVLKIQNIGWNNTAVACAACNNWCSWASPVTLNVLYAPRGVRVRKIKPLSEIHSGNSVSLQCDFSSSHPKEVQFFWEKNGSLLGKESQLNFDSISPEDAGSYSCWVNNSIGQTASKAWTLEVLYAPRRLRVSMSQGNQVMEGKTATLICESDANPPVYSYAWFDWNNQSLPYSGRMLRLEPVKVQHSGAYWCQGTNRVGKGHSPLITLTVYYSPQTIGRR
- run-description: ELISA, coated monkey CD22 protein, antibody 0.00001 nM
- Procedure: In order to detect the binding activity of CD22 human-murine chimeric antibodies to CD22 protein, the purified human CD22-ECD-His protein obtained in Example 2 was diluted with PBS to a final concentration of 2 μg/mL, and then added to 96-well ELISA plate at 100 μl/well. The plate was sealed with plastic film and incubated overnight at 4° C., the plate was washed 2 times with PBS the next day, and then a blocking solution [PBS+2% (w/w) BSA] was added for blocking at room temperature for 2 hours. […]
recorded-endpoint: OD450 (OD450)

- binder: "F1.120.15 (antibody, human IgG1, kappa, V domains shown, human-murine chimeric IgG1 kappa) VH: QVQLQQSGPELVKPGASVKISCKASGNAFSNSWMNWVKQRPGKGLEWIGRVYSEDGDTQYNGKFRDKATLTADRSTSTAYMQLSSLTSEDSAVYFCARWLIYYGTYGAMDYWGQGTSVTVSS VL: DIQMTQTTSSLSASLGDRVTISCRASQDINNYLNWYHQKPDGTVKLLIYFTSRPYSGVPSRFSGSGSGTDYSLTISNLEQEDIATYFCQQGNTLPWTFGGGTKLEIKR"
  recorded-endpoint: "OD450"
  observed-result: 0.06
- binder: "F2.99.1 (antibody, human IgG1, lambda, V domains shown, human-murine chimeric IgG1 lambda; VL name legible) VH: QVTLKESGPGILQPSQTLSLTCSFSGFSLSTFPMGVGWIRQPSGKGLEWLAHIWWDDDEYYNPVLKSRLTISKDTSKKQVYLRIANVDTVDTATYYCTRANWDRWYFDVWGTGTTVTVSS VL: QLVLTQSSSASFSLGASAKLTCTLSRQHSAYTIEWYQQQPLKPPKYVMEVKKDGSHSTGDGIPDRFSGSSSGADRYLSISNIQPEDEAIYICGVGDTIKEHFVFGGGTKVTVLG"
  recorded-endpoint: "OD450"
  observed-result: 0.05
- binder: "F2.121.9 (antibody, human IgG1, lambda, V domains shown, human-murine chimeric IgG1 lambda) VH: EVQLVESGGGLVKPGGSLKLSCAASGFTFSDYVMSWIRQTPEKRLEWVATISDAGSYTFYPDNLKGRFTISRDNAKNNLYLQMNHLTSEDTAFYYCAIIYFGNYGGYWGQGTLVTVSV VL: QAVVTQESALTTSPGGTVVLTCRSNTGAVTTSNYANWVQEKPDHLFTGLIGGTSNRAPGVPVRFSGSLIGDKAALTITGAQTEDDAMYFCALWYSTHWVFGGGTKLTVLG"
  recorded-endpoint: "OD450"
  observed-result: 0.05
- binder: "F2.180.16 (antibody, human IgG1, lambda, V domains shown, human-murine chimeric IgG1 lambda) VH: EVKLVESGGGLVLPGGSLKISCAASGFTFSDYYMYWIRQTPDKRLEWVAYISNTGYSTFYPDSVKGRFTVSRDNAKNTLYLQMSRLQSEDTAMYYCARHGILYAMDYWGQGTSVTVSS VL: QPVLTQSSSASFSLGASAKLTCTLSSQYSTYTIGWYQQQPLKPPKYVMELKHDGSRHTGDGIPDRFSGSSSGADRYLSISNIQPEDEATYICGVGDTIKEQFMYVFGGGTKVTVLG"
  recorded-endpoint: "OD450"
  observed-result: 0.05
- binder: "F1.231.15 (antibody, IgG1, V domains shown, human-murine chimeric IgG1 kappa) VH: QVQLQQPGAELVKPGASVKLSCKTSGYTFTIYWMQWVKQRPGRGLEWIGRIDPHSGDTHYNENFTTKVTLTVDETSNTAYMHLSGLTSEDSAVYYCARRDYSYYVLDYWGQGTSVTVSS VL: DVVLTQTPLSLPVSLGDQASISCRSSQSLVHINGDTYLHWYLQKPGQSPKLLIYTVFNRFSGVPDRFSGSGSGTDFTLKISRVEAEDLGAYFCSQSTHVPYTFGGGTKLEIKR"
  recorded-endpoint: "OD450"
  observed-result: 0.06
- binder: "F2.70.2 (antibody, human IgG1, lambda, V domains shown, human-murine chimeric IgG1 lambda) VH: EVQLVESGGGLVKPGGSLKLSCAASGFTFSDYGMNWFRQAPEKGLEWVAYISRGSHTIYYADTVKGRFTISRDNAKNTLFLQMTSLRSNDTAMYYCVRMAGYYAMDYWGQGTSVTVSS VL: QLVLTQSSSASFSLGASAKLTCTLSSQHSSYIIEWYQQQPLKPPKYVMELKKDGSHSTGDGIPDRFSGSSSGADRYLSISNIQPEDEAIYICGVGDTIKEQFVYVFGGGTKVTVLG"
  recorded-endpoint: "OD450"
  observed-result: 0.06
- binder: "F1.105.11 (antibody, human IgG1, kappa, V domains shown, human-murine chimeric IgG1 kappa; VL name legible) VH: EVQLQQSGPVLVKPGASVKMSCKASGYTFSDYFMNWVKQSHGKSLEWIGIINSYSGGTSYNQKFKGKATLTVDKSSSTAYMELNSLTSEDSAVYYCARWMDYWGQGTSVTVSS VL: DVQITQSPSYLAASPGETITINCRTSESISKHLAWYQEKPGKTNKLLIYSGSTLQSGIPSRFSGSGSGTDFTLTISSLEPEDFAMYYCQQHNEYPWTFGGGTKLEIKR"
  recorded-endpoint: "OD450"
  observed-result: 0.06
- binder: "F1.224.1 (antibody, human IgG1, kappa, V domains shown, human-murine chimeric IgG1 kappa; VL name legible) VH: EVLLHQSGPELVKPGASVKISCKASGYTFTDFNMDWVRQRHGQSLEWIGDVNPNNGGTIYNQKFKGKATLTVDKSSSTVYMDLRSLTSDDTAVYYCVRLGTSDYGEAWFISWGQGTVVTVSA VL: DIVLTQSPASLAVSLGQRATISCRASQSVSTPRYSFMHWYQQKPGQPPKLLIKYASNLESGFPARFTGSGSGTDFTLNIHPVEEEDTAAYYCQQSWAIPWTFGGGTKLEIKR"
  recorded-endpoint: "OD450"
  observed-result: 0.08
- binder: "F1.257.3 (antibody, human IgG1, kappa, V domains shown, human-murine chimeric IgG1 kappa; VL name legible) VH: QVQLQQSGPELARPGASVKLSCKASGYTFTSYGISWVKQRTGQDLEWIGEIYPKLGTTYYNEKFKDKATLTTDRSSSTAYMALRSLTSEDSAVYFCACPHYYATRGGDYWGQGTTLTVSS VL: EIVLTQSPATLSVTPGDSVTFSCRASQSISNHLHWYQQKSHESPRLLIRYASQSISGIPSRFSGSGSGTDFTLSLSSVETEDFGVYFCQQSHSWPYTFGGGTKLEIAR"
  recorded-endpoint: "OD450"
  observed-result: 0.06
- binder: "m971-hIgG1 (antibody, V domains shown, control anti-CD22 antibody; variable regions from US 8,591,889 on human IgG1 constant regions) VH: QVQLQQSGPGLVKPSQTLSLTCAISGDSVSSNSAAWNWIRQSPSRGLEWLGRTYYRSKWYNDYAVSVKSRITINPDTSKNQFSLQLNSVTPEDTAVYYCAREVTGDLEDAFDIWGQGTMVTVSS VL: DIQMTQSPSSLSASVGDRVTITCRASQTIWSYLNWYQQRPGKAPNLLIYAASSLQSGVPSRFSGRGSGTDFTLTISSLQAEDFATYYCQQSYSIPQTFGQGTKLEIKR"
  recorded-endpoint: "OD450"
  observed-result: 0.07

Recorded values, source patent US20240084003A1.
